Hey, just so you know, these numbers are from the nanobody polyreactivity screen of Harvey et al. (2022).

Test: yeast display, Sf9 membrane polyspecificity reagent, FACS + sequencing; frameworks hold sequencing errors
assay-endpoint: polyreactivity (PSR sort gate)

• QVQLVESGGGLVQAGGSLRLICAASGSTFWPYARGWYRQAPGNERELVAAITWSGGRTYYADSVKGRFTISRDNAKNTVYLQMNSLKPEDTAVYYCAADSYVLGRWYGYWGQGTQVTVSS = low polyreactivity
• QVQLQECGGGLVQAGGSLRLSCAASGHIFDADIMGWYRQAPGKERELVASVTDGGSTNYADSVKGRFTISRDNAKNTVYLQMNSLKPEATAVFYCAAIVYPDILTYFDYDYDYFYWGQGTQVTVGS = low polyreactivity
• QVQLVESGGGLVQAGGSLRLSCAASGSTFYYYAMGWYRQAPGKERELVATISSGSSTNYADSVKGRFTISRDNAKNTVYLQMNCLKPEDTAVYYCAADRWYITLSIDATISYDYWGQGTQVTVSS = low polyreactivity
• QVHLVESGGGLVQAGGSLRLSCAASGSTFYTYVMGWYRQAPGKERELVAAISEDDGNTYYADSVKGRFTISRDNAKNTVYLQMNSLKPEDTAVYYCAADWEDDLAYSAYDYWGQGTQVTVSS = high polyreactivity
• QVQLVESGGGLVQAGGSLRLSCAASGFIFYLNVMGWYRQAPGKERELVATITSGGSTNYADSVKGRFTISRDNAKNTVYLQMNSLKPEDTAVYYCAARRGKSYYWYNYWGQGTQVTVSS = high polyreactivity
• QVQLVESGGGLVQAGGSLRLSCAASGRIFGWYAMGGYRQAPGKERELVAAITSGGRTKYADSVKGRLTISRDNAKNTVYLQMNSLKPEDTAVYYCAARPQISSFDGLYYWGQGTQVTVSS = high polyreactivity
• QVQLVESGGGLVQAGGSLRLSCAASGSTFFTYTMGWYRQAPGKERELVARITSSGGSTYYADSVKGRFTISRDNAKNTVYLQMNSLKPEDTAVYYCNARYYSHPTYDYWGQGTQVTVSS = high polyreactivity
• QLQLLESAVGLVQAGGSLRLSCASSGRIFTQNTMGWYRQAPAKESELVAAINYSGGRTNYADSVKGRFTISRDNAKNTVYLQMNSLKPEDTAVYYCAAGYRRATYGYWGQGTQVTVSS = high polyreactivity
• EEELVESGGGLVQAGGSLRLTCAASGFIFAYNAMGWYRQAPGKEREFVAAISRSGGSTYYADSVKGRFTISRDNAKNTVYLQMNSLKPEDTAVYYCAARRSVGGYGYWGQGTQVTVSS = high polyreactivity
• QVQLVESGGGLVQAGGSLRLSCAASGSIFISNAMGWYRQAPGKERELVAAISSSGGRTYYADSVKGRFTISRDNAKNTVYLQMNSLKPEDTAVYYCAVRGLYQGRRRYSSEYDYWGQGTQVTVSS = high polyreactivity
• QVQLVESGGCLVQAGGSLRLSCAASGRTFRYYAMGWYRQAPGKERELVAAISSSGDRTYYADSVKGRFTISRDNAKNTVYLQMNSLKPEDTAVYYCAADRGARGDYWGQGTQVTVSS = high polyreactivity

###

Assay: yeast display, Sf9 membrane polyspecificity reagent, FACS + sequencing; frameworks hold sequencing errors
assay-endpoint: polyreactivity (PSR sort gate)

* QVQLVESGGGLVQAAGSLRLSCAASGSIFGPNAMGWYRQAPGKERELVASITLSGGSTYYADSVKGRFTISRDNAKNNVYLQMNSLKPVDTAVYYCNADLLPADAPLWVTGGDYWGQGTQVTVSS | low polyreactivity
* QVQLVESGGGLVQEGGSLRLSWAASGITFGGYAMGWYRQAPGKERELVAAISRGGGSTNYADSVKGRFTISLDNANNTVYLQMNSLKPEDTAVYYCNARRQNSRYDYWGQGTQVTVST | low polyreactivity
* QVQLVESGGGLVQAGGSLRLSCAASGRTFTKYAMGWYRQAPGKERELVAGITRRGGNTYYADSVKGRFTISRDNAKNTVYLQMNSLKPEDTAVYYCAATLFYTGSRFRYYYWGQGTQVTVSS | high polyreactivity
* QVQLVESGGGLFQAGGSLRLSCAASGRIFPWNTMGWYRQAPGKERELVAGINNGDRTYYADSVKGRFTISRVNAKNTVYLQMNSLKPEDTAVYYCAVDTWYFLFQYGYYQEGDYWGQGTQVTVSS | low polyreactivity
* QVQLVESGGGLVKEGGSLRLSSAASGSTNRYYAMGLYRQAPGKERELVAGITTGGGRTYYADSEKGRFTISRDNAKYTVYLQMTSLKPEDTAVYYCAADRLSHYWYRISYDYWGQCTQVTVSS | high polyreactivity
* QVQLVESGGGLVQAGGSLRLSCAASGSTFITYVMGWYRQAPGKERELVAAISRSGGTTYYADSVKGRFTISRDNAKNTVYLQMNCLKPEDTAVYYCAARIGGQVQKTARGSWGQGTQVTVSS | high polyreactivity
* QVQLVESGGGLVQAGGSLRLSCPASGRIYDYNGMRWYRQAPRKERELVAAITSSGSRTYYADSVKGRFTISRDNAKNTVYFQMNSLKPEDTAVYYCARGGGRRKGLVDYWGQGTQVSVSS | low polyreactivity
* QVQLVESGGGLVQAGGSLRLSCAASGFTFDAYTMGWYSQAPGKERELVAAITWSGGRTYYADSVKGRCTISRDNAKTTVYLQLNSLKPEDTALYNCAADSPTSLYEYWGQGTQVTVSS | high polyreactivity
* QVQLVESGGGLVQAGGSLRLSCAASGSIFDYYAMGWYRQAPGKERELVAAISSSGARTSYADSVKGRFTISRDNAKNTVYLQMNSLKPEDTAVYYCAAPYRSLKTGRYDYWGQGTQVTVSS | high polyreactivity
* QVQLVESGGGLVQAGGSLRLSCAPSGSTFPRNAMGWYRQAPGKERELVAAISYSGGRTYYADSVKGRFTISRDNAKNTVSLQMNSLKPEDTAVYYCAAQPWFTYYYWGQGTQVTVSS | high polyreactivity
* QVQLVESGGGLVQAGGSLRLSCAASGITFFYYAMGWYRQAPGKERELVAAINWSGRTYYADSVKGRFTISRDNAKNTVYLQMNSLKPEDTAVSYCAAVTYGPGVSGMDYWGQGTQVTVSS | low polyreactivity
